logP values for the molecules below.
# assay-details: Partition coefficient (logP)
# Format: physicochemical
# assay-setup: octanol/water
Write the number on its own, no unit after it.

substance-smiles	logP
COc1ccc2c(c1)[nH]c1c3c4ccccc4nc-3c[nH]c12.Cl	4.04

(Q) Fill in the blank: the reported logP of `Clc1ccc2c(c1)[nH]c1c2ncc2[nH]c3ccccc3c21` is ____.
(A) 4.58

(Q) Fill in the blank: the reported logP of `Fc1ccc2[nH]c3c4c5ccccc5nc-4c[nH]c3c2c1` is ____.
(A) 4.01

(Q) Fill in the blank: the reported logP of `Fc1ccc2c(c1)[nH]c1c3c4ccccc4nc-3c[nH]c12` is ____.
(A) 4.01

(Q) Fill in the blank: the reported logP of `Oc1ccc2c(c1)[nH]c1c3c4ccccc4nc-3c[nH]c12` is ____.
(A) 0.95

(Q) Fill in the blank: the reported logP of `Cc1ccc2c(c1)[nH]c1c3c4ccccc4nc-3c[nH]c12` is ____.
(A) 4.53

(Q) Fill in the blank: the reported logP of `Brc1ccc2c(c1)[nH]c1c3c4ccccc4nc-3c[nH]c12` is ____.
(A) 4.73

(Q) Fill in the blank: the reported logP of `c1ccc2c(c1)[nH]c1c2ncc2[nH]c3ccccc3c21` is ____.
(A) 3.87

Reference source for all entries: ChEMBL document CHEMBL1124900
